These measurements were taken from the supplement of paper PMC10338343.

- System: MILI (PIWIL2) piRISC loaded with L1MC piRNA (26 nt);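 further: 1 nM active piRISC with 0.1 nM target library at 33 °C single turnover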
- assay_text: pre-steady-state target cleavage rate (min^-1); guide: L1MC piRNA 5'p-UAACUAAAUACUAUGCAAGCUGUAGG; MIWI and MILI are mouse PIWI proteins and EfPiwi is from a freshwater sponge; tags in brackets are library labels; higher = faster piRNA-guided slicing of the target
- condition_label: auxiliary factor: 500 nM mouse GTSF1
value_type: pre-steady-state target cleavage rate
Hey, just send me the number, nothing else.

Sample answers from the record:
* UCCUGGAUGUCGAUGCAUAGUAUUUAAUUA | 0.0256
* UCCUCCUACACCUUGCAUACUAUUUAGUUA | 0.0962
* UCCUGGAUCAGCUUGCCAUAGUAUUUAGUUA | 0.0992
* UCCUGCUACAGCUUGGUUAGUAUUUAGUAA | 0.148
* UCCUGGUUCAGCUUGCAUAGUAUUUAGAAA | 0.114

Prompt: Give the measured pre-steady-state target cleavage rate of UCCUGGAUCAGCUUGCAUAGUAUUUAGUUA [g2:g22:cont:t1A] .
Completion: 0.267

Prompt: Give the measured pre-steady-state target cleavage rate of UCCUGGUACAGCUUGCUAGUAUUUAGUUA .
Completion: 0.0128
